Source listed as patent US11466013B2.

- measuredTarget: UniProtKB P27361
- testMethodNotes: Kinase assay (Caliper, FAM-labeled peptide), ERK1
- Type: biochemical
measuredProperty: IC50 (nM)

Observe how each entry below is paired with its result.
[Q] For CC(C)Nc1cc(-c2cnc(C(=O)NCc3cc(F)ccc3CO)s2)c(Cl)cn1 [Example 2] , what is its reported IC50?
[A] 1

[Q] For CC(C)Nc1cc(-c2cc3n(c2)CC(CO)(CO)CN(Cc2cc(F)ccc2CO)C3=O)c(Cl)cn1 [Example 29] , what is its reported IC50?
[A] 0.68

(1) COC[C@H]1Cn2cc(-c3nc(Nc4ccnn4C)ncc3C)cc2C(=O)N1Cc1cc(F)ccc1CO [Example 35]
(2) O=C1c2cc(-c3cc(NC4COC4)ncc3Cl)cn2CCN1Cc1cc(F)ccc1CO [Example 30]
[Q] Hey, which is lower on measured IC50, 1 or 2 ? Label of pick, please.
[A] 2
(2: 0.31 nM, 1: 0.84 nM)

----------
- measuredTarget: ERK2 (Homo sapiens)
- testMethodNotes: Kinase assay (Caliper, FAM-labeled peptide), ERK2
- Format: biochemical
measuredProperty: IC50 (nM)

Observe how each entry below is paired with its result.
[Q] Find the measured IC50: item CC(C)Nc1cc(-c2cc3n(n2)CC(CO)(CCl)CN(Cc2ccccc2CO)C3=O)c(Cl)cn1 (stereo not shown) , target or system ERK2 (Homo sapiens).
[A] 1.4

[Q] Find the measured IC50: item COC[C@H]1Cn2cc(-c3cc(N[C@H]4CC[C@H](O)CC4)ncc3Cl)cc2C(=O)N1Cc1cc(F)ccc1CO , target or system ERK2 (Homo sapiens).
[A] 1.4

[Q] Find the measured IC50: item COCC1(CO)CN(Cc2cc(F)ccc2CO)C(=O)c2cc(-c3cc(NC(C)C)ncc3Cl)cn2C1 (stereo not shown) , target or system ERK2 (Homo sapiens).
[A] 0.64

(1) CC(C)Nc1cc(-c2cc3n(c2)CCCN(Cc2ccccc2CO)C3=O)c(Cl)cn1
(2) COC[C@H]1Cn2cc(-c3cc(NC4CCCC4)ncc3Cl)cc2C(=O)N1Cc1cc(F)ccc1CO
(3) CC(C)Nc1cc(-c2c[nH]c(C(=O)NCc3cccc(F)c3)c2)c(Cl)cn1 [Example D6, reference compound]
(4) COC[C@H]1Cn2cc(-c3cc(NC(=O)c4csc(C)n4)ncc3Cl)cc2C(=O)N1Cc1cc(F)ccc1CO
[Q] Put the items in sequence by IC50, from largest down. Lab note: record answer as labels in requested order.
[A] 3, 2, 4, 1

----------
- measuredTarget: ERK1 (Homo sapiens, UniProt P27361)
- Sequence (P27361 whole entry): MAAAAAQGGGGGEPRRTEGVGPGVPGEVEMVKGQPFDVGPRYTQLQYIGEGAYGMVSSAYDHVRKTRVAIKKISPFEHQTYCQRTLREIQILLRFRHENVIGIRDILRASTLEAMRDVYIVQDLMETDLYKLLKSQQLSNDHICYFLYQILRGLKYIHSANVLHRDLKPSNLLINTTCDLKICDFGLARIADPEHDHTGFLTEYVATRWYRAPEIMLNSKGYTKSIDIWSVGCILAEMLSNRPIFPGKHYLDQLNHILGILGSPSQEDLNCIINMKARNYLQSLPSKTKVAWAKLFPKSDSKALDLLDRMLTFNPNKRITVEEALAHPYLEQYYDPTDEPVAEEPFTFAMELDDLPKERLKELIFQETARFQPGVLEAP
- testMethodNotes: Kinase assay (Caliper, FAM-labeled peptide), ERK1
- Type: biochemical
measuredProperty: IC50 (nM)

Observe how each entry below is paired with its result.
[Q] For COC[C@H]1Cn2cc(-c3cc(NC4CCC4)ncc3Cl)cc2C(=O)N1Cc1cc(F)ccc1CO [Example 70] , what is its reported IC50?
[A] 1.8

[Q] For CC(C)Nc1cc(-c2cc3n(c2)CC(CO)CN(Cc2cc(F)ccc2CO)C3=O)c(Cl)cn1 (centres unmarked) [Example 42] , what is its reported IC50?
[A] 2.5

[Q] For CC(C)Nc1cc(-c2cc3n(c2)CCN(Cc2ccccc2CO)C3=O)c(Cl)cn1 [Example 14] , what is its reported IC50?
[A] 0.7

[Q] For O=C1c2cc(-c3cc(NCC(F)(F)F)ncc3Cl)cn2CCN1Cc1cc(F)ccc1CO [Example 124] , what is its reported IC50?
[A] 0.79

[Q] For COC[C@H]1Cn2cc(-c3cc(Nc4cc(C)on4)ncc3Cl)cc2C(=O)N1Cc1cc(F)ccc1CO [Example 80] , what is its reported IC50?
[A] 0.73

(I) Cn1nccc1Nc1cc(-c2cc3n(c2)CCN(Cc2cc(F)ccc2CO)C3=O)c(Cl)cn1 [Example 50]
(II) Cc1cnc(Nc2ccc(OC(C)C)nc2)nc1-c1cc2n(c1)CCN(Cc1cc(F)ccc1CO)C2=O [Example 159]
[Q] Sorting by IC50 in descending order, would I or II appear first? Label of pick, please.
[A] II

----------
- measuredTarget: ERK1 (Homo sapiens)
- testMethodNotes: Kinase assay (Caliper, FAM-labeled peptide), ERK1
- Type: biochemical
measuredProperty: IC50 (nM)

Observe how each entry below is paired with its result.
[Q] For CC(C)Nc1cc(-c2cc3n(c2)CCCN(Cc2cc(F)c(F)cc2CO)C3=O)c(Cl)cn1 , what is its reported IC50?
[A] 0.73

[Q] For COC[C@H]1Cn2cc(-c3cc(NCC(C)(C)O)ncc3Cl)cc2C(=O)N1Cc1cc(F)ccc1CO , what is its reported IC50?
[A] 0.97

[Q] For Cc1cnc(Nc2ccc3c(cnn3C)c2)nc1-c1cc2n(c1)CCN(Cc1cc(F)ccc1CO)C2=O , what is its reported IC50?
[A] 0.5

[Q] For COC[C@H]1Cn2cc(-c3cc(NC4COC4)ncc3Cl)cc2C(=O)N1Cc1cc(F)ccc1CO , what is its reported IC50?
[A] 0.54

[Q] For Cc1cnc(NC2COC2)nc1-c1c[nH]c(C(=O)NCc2cc(F)ccc2CO)c1 , what is its reported IC50?
[A] 0.65

(I) CC(C)Nc1cc(-c2cc3n(c2)CC2(COC(C)(C)OC2)CN(Cc2cc(F)ccc2CO)C3=O)c(Cl)cn1
(II) O=C1c2cc(-c3cc(NC4CCOC4)ncc3Cl)cn2CCN1Cc1cc(F)ccc1CO (stereo not shown)
(III) CC(C)Nc1cc(-c2cnc(C(=O)NCc3cccc(F)c3CO)s2)c(Cl)cn1
(IV) CC(C)Nc1cc(-c2cc3n(c2)CC2(COC2)CN(Cc2cc(F)c(F)cc2CO)C3=O)c(Cl)cn1
(V) Cc1cnc(Nc2ccccc2)nc1-c1cc2n(c1)CCN(Cc1cc(F)ccc1CO)C2=O
[Q] Put the items in sequence by IC50, from largest down. Lab note: record answer as labels in requested order.
[A] V, III, I, IV, II
(V: 2.7 nM, III: 1.5 nM, I: 0.9 nM, IV: 0.47 nM, II: 0.3 nM)

----------
- measuredTarget: ERK2 (Homo sapiens)
- testMethodNotes: Kinase assay (Caliper, FAM-labeled peptide), ERK2
- Format: biochemical
measuredProperty: IC50 (nM)

[Q] For O=C1c2cc(-c3cc(NC4COC4)ncc3Cl)cn2CCN1Cc1cc(F)ccc1CO , what is its reported IC50?
[A] 0.2

(1) CC(C)Nc1cc(-c2cc3n(c2)CCCN(Cc2cc(F)c(F)cc2CO)C3=O)c(Cl)cn1
(2) COC[C@H]1Cn2cc(-c3cc(NC(C)C)ncc3Cl)cc2C(=O)N1Cc1cc(F)ccc1CO
[Q] Sorting by IC50 in descending order, would 1 or 2 appear first? Label of pick, please.
[A] 1
(1: 0.76 nM, 2: 0.4 nM)

----------
- measuredTarget: ERK2 (Homo sapiens, UniProt P28482)
- Sequence (P28482 whole entry): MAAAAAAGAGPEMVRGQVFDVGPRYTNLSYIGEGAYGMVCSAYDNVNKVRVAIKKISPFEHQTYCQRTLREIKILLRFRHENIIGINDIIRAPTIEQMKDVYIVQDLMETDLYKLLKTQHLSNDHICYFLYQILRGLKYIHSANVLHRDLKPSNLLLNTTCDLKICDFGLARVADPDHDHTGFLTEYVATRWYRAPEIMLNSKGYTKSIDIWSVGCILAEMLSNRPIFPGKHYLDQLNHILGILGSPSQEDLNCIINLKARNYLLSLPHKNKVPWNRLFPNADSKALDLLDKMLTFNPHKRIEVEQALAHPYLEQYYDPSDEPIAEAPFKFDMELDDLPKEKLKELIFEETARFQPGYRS
- testMethodNotes: Kinase assay (Caliper, FAM-labeled peptide), ERK2
- Assay type: biochemical
- Method: The compound was diluted to the desired concentration with DMSO, transferred 100 μL to a 96-well plate, and performed a gradient dilution 10 μL of compound from each well was taken and mixed with 90 μL of kinase buffer, and then transferred 5 μL from each well to a 384-well plate. […] After reading the collected data on Caliper, the data was converted to inhibition percentage. […]
measuredProperty: IC50 (nM)

Observe how each entry below is paired with its result.
[Q] Find the measured IC50: item CC(C)Nc1cc(-c2cnc(C(=O)NCc3ccccc3CO)s2)c(Cl)cn1 , target or system ERK2 (Homo sapiens, UniProt P28482).
[A] 0.7

[Q] Find the measured IC50: item COC[C@H]1Cn2cc(-c3cc(Nc4cn(C)nc4C)ncc3Cl)cc2C(=O)N1Cc1cc(F)ccc1CO , target or system ERK2 (Homo sapiens, UniProt P28482).
[A] 1.1

[Q] Find the measured IC50: item CCNc1ncc(Cl)c(-c2cc3n(c2)C[C@H](COC)N(Cc2cc(F)ccc2CO)C3=O)n1 , target or system ERK2 (Homo sapiens, UniProt P28482).
[A] 1.4

(1) Cc1cnc(NC2CCOC2)nc1-c1cc2n(c1)CCN(Cc1cc(F)ccc1CO)C2=O (stereo not shown)
(2) Cc1cnc(Nc2ccccc2)nc1-c1cc2n(c1)CCN(Cc1cc(F)ccc1CO)C2=O
(3) COC[C@H]1Cn2cc(-c3cc(Nc4c(C)noc4C)ncc3Cl)cc2C(=O)N1Cc1cc(F)ccc1CO
(4) CC(C)Nc1cc(-c2cnc(C(=O)NCc3cc(F)ccc3CO)s2)c(Cl)cn1
(5) CC(C)Nc1cc(-c2c[nH]c(C(=O)NCc3ccccc3CO)c2)c(Cl)cn1
[Q] Provide the items ranked by increasing IC50. Lab note: record answer as labels in requested order.
[A] 1, 2, 4, 3, 5

(1) Cc1cnc(Nc2ccnn2C)cc1-c1cc2n(c1)CCN(Cc1cc(F)ccc1CO)C2=O
(2) CC(C)Nc1cc(-c2cnc(C(=O)NCc3ccc(F)cc3CO)s2)c(Cl)cn1
(3) Cc1cnc(Nc2cccc3c2cnn3C)nc1-c1cc2n(c1)CCN(Cc1cc(F)ccc1CO)C2=O
(4) CC(C)Nc1cc(-c2cc3n(c2)C[C@H](CO)N(Cc2cc(F)ccc2CO)C3=O)c(Cl)cn1
[Q] Put the items in sequence by IC50, from largest down. Lab note: record answer as labels in requested order.
[A] 2, 3, 4, 1

(P) Cc1cnc(Nc2cccc3c2OCCO3)nc1-c1cc2n(c1)CCN(Cc1cc(F)ccc1CO)C2=O
(Q) COC[C@H]1Cn2cc(-c3ccnc(NC4CCOCC4)c3)cc2C(=O)N1Cc1cc(F)ccc1CO
(R) COC[C@H]1Cn2cc(-c3nc(Nc4ccnn4C)ncc3C)cc2C(=O)N1Cc1cc(F)ccc1CO
[Q] Put the items in sequence by IC50, from largest down. Lab note: record answer as labels in requested order.
[A] Q, P, R
(Q: 1.2 nM, P: 0.7 nM, R: 0.48 nM)

(P) Cn1nccc1Nc1cc(-c2cc3n(c2)CCN(Cc2cc(F)c(F)cc2CO)C3=O)c(Cl)cn1
(Q) COC[C@H]1Cn2cc(-c3cc(NC4CC4)ncc3Cl)cc2C(=O)N1Cc1cc(F)ccc1CO
[Q] Sorting by IC50 in descending order, would P or Q appear first? Label of pick, please.
[A] Q
(Q: 1.3 nM, P: 0.89 nM)

(1) CCc1ccccc1Nc1ncc(C)c(-c2cc3n(c2)CCN(Cc2cc(F)ccc2CO)C3=O)n1
(2) COC[C@H]1Cn2cc(-c3cc(NC4CCOC4)ncc3Cl)cc2C(=O)N1Cc1cc(F)ccc1CO (stereo partly shown)
[Q] Sorting by IC50 in descending order, would 1 or 2 appear first? Label of pick, please.
[A] 1
(1: 0.9 nM, 2: 0.41 nM)
